Provide the reported Percent Effect of each item.
Target: Aspartate--tRNA(Asp/Asn) ligase (Mycobacterium tuberculosis (strain ATCC 25618 / H37Rv)) (UniProt P9WFW3)
Sequence (P9WFW3 whole entry): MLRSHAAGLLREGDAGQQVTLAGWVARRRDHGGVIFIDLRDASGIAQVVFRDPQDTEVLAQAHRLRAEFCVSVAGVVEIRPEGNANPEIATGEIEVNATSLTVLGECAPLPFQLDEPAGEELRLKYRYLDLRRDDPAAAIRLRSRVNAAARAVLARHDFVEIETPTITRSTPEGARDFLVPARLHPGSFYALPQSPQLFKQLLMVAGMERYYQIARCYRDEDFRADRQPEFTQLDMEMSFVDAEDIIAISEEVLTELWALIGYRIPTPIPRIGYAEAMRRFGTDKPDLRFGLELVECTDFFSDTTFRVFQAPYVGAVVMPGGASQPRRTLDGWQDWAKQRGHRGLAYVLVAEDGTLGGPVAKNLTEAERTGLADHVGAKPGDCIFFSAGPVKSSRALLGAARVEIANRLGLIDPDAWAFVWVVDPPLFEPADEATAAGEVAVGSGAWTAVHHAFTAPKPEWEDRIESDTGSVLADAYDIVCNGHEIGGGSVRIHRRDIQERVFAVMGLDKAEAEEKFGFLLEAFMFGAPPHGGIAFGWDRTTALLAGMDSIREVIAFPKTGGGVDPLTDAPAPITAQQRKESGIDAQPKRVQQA
Test: Assay for Asp RNA synthetase-1 from Mycobacterium tuberculosis
Format: functional
Parameters: scale not given: in the data most compounds retested in dose-response had high values
Details: 30 µM
Write the number in % without appending the unit.

Consider the compound "NC(=O)c1cc(NC(=O)N2CCCCCC2)ccc1F" . State its measured Percent Effect.
1.17

Consider the compound c1cnn(CC2CCCN2c2ncnc3ccsc23)c1 (stereo not drawn) . State its measured Percent Effect.
3.64

Consider the compound CCC(C)NC(=O)Cc1c(C)nc2c(c1C)c(=O)[nH]n2C (stereo not drawn) . State its measured Percent Effect.
5.44

Consider the compound "CCc1noc(CN(C)Cc2ccc(N3CCCCC3)cc2)n1" . State its measured Percent Effect.
-2.17

Consider the compound "Cn1cc(-c2cnc(N3CCOCC3)nc2)cc1C(=O)N1CCOCC1" . State its measured Percent Effect.
-3.52

Consider the compound Cc1cccnc1CNCC1(O)CCCN(CC2CCCCC2)C1=O (stereo not drawn) . State its measured Percent Effect.
-2.28

Consider the compound Cc1nc(CCCNC(=O)C2CC(=O)N(C(C)(C)C)C2)sc1C (stereo not drawn) . State its measured Percent Effect.
-1.3

Consider the compound "Cc1ccc(C)c(C(=O)CN2C(=O)c3ccccc3CS2(=O)=O)c1" . State its measured Percent Effect.
2.42
